Target: human muscarinic M4 receptor (Homo sapiens, UniProt P08173)
Construct: expressed in transfected cells
Sequence (P08173 whole entry): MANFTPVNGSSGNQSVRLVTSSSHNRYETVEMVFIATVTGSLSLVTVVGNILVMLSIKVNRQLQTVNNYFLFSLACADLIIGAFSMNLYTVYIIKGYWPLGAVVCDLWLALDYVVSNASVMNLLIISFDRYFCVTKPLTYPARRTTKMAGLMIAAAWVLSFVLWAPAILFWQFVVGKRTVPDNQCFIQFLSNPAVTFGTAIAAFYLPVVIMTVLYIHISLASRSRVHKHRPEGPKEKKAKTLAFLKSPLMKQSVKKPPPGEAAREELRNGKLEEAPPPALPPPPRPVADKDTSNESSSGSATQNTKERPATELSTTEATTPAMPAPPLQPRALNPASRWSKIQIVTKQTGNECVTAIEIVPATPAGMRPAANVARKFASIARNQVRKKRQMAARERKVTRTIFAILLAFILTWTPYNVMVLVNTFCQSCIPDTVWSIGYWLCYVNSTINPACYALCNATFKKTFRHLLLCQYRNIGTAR
Assay: Alphascreen Surefire phospho-ERK1/2 functional assay, M4
Assay type: cell-based
Conditions: CHO cells stably expressing human M4, read-out: pEC50 M4 (converted)
Rule: measured EC50 below 30 nM gets class 1; anything equal to or greater than 30 nM gets class 0.

CCOC(=O)N1CC2CCC1CC2N1CCC2(CC1)CNC(=O)C2 (single isomer, unassigned) [Example 3-1 Isomer 1] | class 1
CCOC(=O)N1C2CCC1C(F)C(N1CCC3(CC1)CNC(=O)C3)C2 (single isomer, unassigned) [Example 2-11 Isomer 2] | class 0

Hello, is EC50 of the following compound strictly smaller than 30 nM? COC(=O)N1CC2CC(N3CCC4(CC3)CNC(=O)C4)CC1C2 (single isomer, unassigned) [Example 6-1 Isomer 2]
class 0

Hello, is EC50 of the following compound strictly smaller than 30 nM? CCOC(=O)N1C2CCC1CC(N1CCC3(CC1)CC(=O)NC3CC)C2 (single isomer, unassigned) [Example 2-8 Isomer 2]
class 0

Hello, is EC50 of the following compound strictly smaller than 30 nM? CCOC(=O)N1C2CC[C@@H]1C[C@H](N1CCC3(CC1)CC(=O)N(O)C3)C2
class 0

Hello, is EC50 of the following compound strictly smaller than 30 nM? CCOC(=O)N1C2CCC1CC(N1CCC3(CC1)CNC(=O)O3)C2 (single isomer, unassigned) [Example 2-14 Isomer 1]
class 0
